Recorded values, source patent US20260062426A1.

Test System: CDK2 (Homo sapiens)
Construct: host or cells: HEK293
Assay Summary: CDK2 HIBIT PQ (protein quantification), degradation
Assay type: cell-based
Measurement Parameters: Max = Maximum
Property: CDK2 HIBIT PQ Max (%)

Please review the following examples before continuing.
Lab note: CC(C)Oc1c(-c2cn[nH]c2)ncn2nc(Nc3ccc(S(=O)(=O)c4cccc(CN5CCC(c6ccc7c(N8CCC(=O)NC8=O)nn(C)c7c6)CC5)c4)cc3F)nc12 gave CDK2 HIBIT PQ Max (%) of 92%

Lab note: CC(C)Oc1c(-c2cn[nH]c2)ncn2nc(Nc3ccc(S(=O)(=O)c4cccc(CN5CCN(c6cc7c(cc6F)C(=O)N(C6CCC(=O)NC6=O)C7)CC5)c4)cc3F)nc12 (racemic) gave CDK2 HIBIT PQ Max (%) of 90%

Lab note: CC(C)Oc1c(-c2cn[nH]c2)ncn2nc(Nc3ccc(S(=O)(=O)N4CCC[C@@H](CN5CC[C@H](c6ccc7c(N8CCC(=O)NC8=O)nn(C)c7c6)CC5(C)C)C4)cc3F)nc12 (single isomer, unassigned) gave CDK2 HIBIT PQ Max (%) of 90%

Lab note: CCC1CN(c2ccc3c(N4CCC(=O)NC4=O)nn(C)c3c2)CCN1Cc1cccc(S(=O)(=O)N2CC[C@H](Nc3nc4c(OC(C)C)c(-c5cn[nH]c5)ncn4n3)[C@H](C)C2)c1 (some centres unmarked) gave CDK2 HIBIT PQ Max (%) of 97%

Next:
Lab note: CC(C)Oc1c(-c2cn[nH]c2)ncn2nc(Nc3ccc(S(=O)(=O)c4cccc(C(C)N5CCN(c6ccc7c(N8CCC(=O)NC8=O)nn(C)c7c6)CC5)c4)cc3F)nc12 (single isomer, unassigned) [Compound 98] gave CDK2 HIBIT PQ Max (%) of 95%

---

Test System: CDK2 (Homo sapiens, UniProt P24941)
Construct: host or cells: HEK293
Assay Summary: CDK2 HIBIT PQ (protein quantification), degradation
Assay type: cell-based
Measurement Parameters: Max = Maximum
Reported CDK2 HIBIT PQ Max (%) is given for each of the following molecules.
I'd appreciate it if you wrote the number followed by its unit.

Please review the following examples before continuing.
Lab note: CC(C)Oc1c(-c2cn[nH]c2)ncn2nc(Nc3ccc(S(=O)(=O)N(C)CCCN4CCC(c5ccc6c(c5)n(C)c(=O)n6[C@H]5CCC(=O)NC5=O)CC4)cc3F)nc12 (racemic) [Compound 16] gave CDK2 HIBIT PQ Max (%) of 91%

Lab note: CC(C)Oc1c(-c2cn[nH]c2)ncn2nc(Nc3ccc(S(=O)(=O)N(C)CCCN4CCN(c5ccc6c(c5)n(C)c(=O)n6C5CCC(=O)NC5=O)C[C@H]4C)cc3F)nc12 (some centres unmarked) [Compound 63] gave CDK2 HIBIT PQ Max (%) of 92%

Lab note: CC(C)Oc1c(-c2cn[nH]c2)ncn2nc(Nc3cc(F)c(S(=O)(=O)N(C)CCCN4CCC(c5ccc6c(c5)n(C)c(=O)n6C5CCC(=O)NC5=O)CC4)cc3F)nc12 (racemic) [Compound 60] gave CDK2 HIBIT PQ Max (%) of 93%

Lab note: CC(C)Oc1c(-c2cn[nH]c2)ncn2nc(Nc3ccc(S(=O)(=O)c4cccc(N5CCC(CN6CCN(c7ccc8c(c7)CN(C7CCC(=O)NC7=O)C8=O)CC6)CC5)c4)cc3F)nc12 (racemic) [Compound 22] gave CDK2 HIBIT PQ Max (%) of 93%

Attention now turns to another entry.
Lab note: CC(C)Oc1c(-c2cn[nH]c2)ncn2nc(Nc3ccc(S(=O)(=O)c4cccc(CN5CCN(c6ccc7c(N8CCC(=O)NC8=O)nn(C)c7c6)CC5C(C)C)c4)cc3F)nc12 (single isomer, unassigned) [Compound 107] gave CDK2 HIBIT PQ Max (%) of 93%
